Test: Therapeutic index, ratio of LD50 for po dosed Donryu rat assessed as mortality to ID50 for antiinflammatory activity in po dosed Donryu rat assessed as inhibition of carrageenan-induced paw edema
Assay type: organism-based
Details: in vivo, read-out: TI
Quantity measured: selectivity ratio
Give bare numbers.

Please review the entries below; each comes with its answer.
O=C(O)Cc1ccc2c(c1)OCc1ccccc1C2=O [OXEPINAC]; 29.7
O=C(Cc1ccc2c(c1)OCc1ccccc1C2=O)OCC(O)CO (stereo not drawn); 9

Challenge: Dear colleague, I am looking for the recorded selectivity ratio of the following molecule: CC1(C)OCC(COC(=O)Cc2ccc3c(c2)OCc2ccccc2C3=O)O1 (stereo not drawn)
Response given: 2.4
